- target of assay: human DPP1 enzyme (Homo sapiens)
- Sequence (P53634 25-134 limits assumed): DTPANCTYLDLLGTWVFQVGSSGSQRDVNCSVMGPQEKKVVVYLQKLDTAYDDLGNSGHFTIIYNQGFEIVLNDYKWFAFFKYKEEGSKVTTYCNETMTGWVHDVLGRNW
- Sequence (P53634 231-394 limits assumed): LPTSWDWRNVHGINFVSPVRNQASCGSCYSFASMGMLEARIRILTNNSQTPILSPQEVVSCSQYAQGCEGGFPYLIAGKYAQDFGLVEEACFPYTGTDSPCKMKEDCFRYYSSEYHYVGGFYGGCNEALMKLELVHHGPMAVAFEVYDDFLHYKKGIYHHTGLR
- Sequence (P53634 395-463 limits assumed): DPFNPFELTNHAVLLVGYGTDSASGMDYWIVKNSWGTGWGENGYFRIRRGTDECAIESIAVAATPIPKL
- test name: Human DPP1 Enzyme IC50 Assay
- Assay type: biochemical
- Design: was first proteolytically processed into its mature form using recombinant human cathepsin L; purchased R&D Systems
pIC50: −log10 of the molar value.
quantity measured: pIC50

Solved entries:
# compound, pIC50
rows = [
    ("N#C[C@H](Cc1cc2c(cc1F)-c1cc(C3COC3)c(F)cc1CO2)NC(=O)[C@@H]1CNCCCO1", "7.82 to 8.30"),
    ("N#C[C@H](Cc1ccc2c(c1)OCc1ccc(C3CCNC3)cc1-2)NC(=O)[C@@H]1CNCCCO1 (stereo partly drawn)", "< 7.82"),
]

Incoming: Query (compound): N#Cc1ccc2c(c1)COc1c-2ccc(CC(C#N)NC(=O)[C@@H]2CNCCCO2)c1F (stereo partly drawn) ; field requested: pIC50
Outgoing: < 7.82
